These data points were gathered from PubChem BioAssay AID1159580.

TEST_DETAILS: chemical genetic growth profiling, strain panel (AID 1159580);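 note: tested at 20 µM; growth read once vehicle control cultures reached saturation at 30 °C; lower values mean less growth of the strain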
CONDITION_DETAILS: S. cerevisiae deletion strains, growth OD, locus YHR142W, strain chs7
Hit rate of the full screen: of about 5,500 compounds, about 2,000 (36%) were called active. Roughly 18% stayed inconclusive and do not appear here. Cut-off read from the data, not from the text of the source: active = normalized growth mostly below about 0.91 (no sharp cut-off); inconclusive = no clear call, values can overlap the other calls; inactive = mostly above about 0.92. Some of the results follow.
Please reply with one of these outcomes: T = active, F = inactive

| COMPOUND | CAT |
| --- | --- |
| Cc1cccc(Nc2cc(Cl)nc(SCC(=O)O)n2)c1C | F |
| COc1ccc(C2CC(=O)c3ccc(OC)cc3O2)cc1 (stereo not given) | T |
| NC(N)=Nc1nc(CSCCC(N)=NS(N)(=O)=O)cs1 | F |
| CC1(C)C2CC[C@]3(C)C(C(=O)C=C4[C@H]5C[C@@](C)(C(=O)O)CC[C@]5(C)CC[C@]43C)[C@@]2(C)CC[C@@H]1O (stereo not given in full) | T |

-- ask Any idea what this test logged for O=C(O)C1CC([C@@H]2CCCCN2)CN2CCCCC12 (stereo not given in full) ?
-- reply F

-- ask Any idea what this test logged for "O=C(/C=C/C=C/c1ccc2c(c1)OCO2)N1CCCCC1" ?
-- reply T

-- ask Any idea what this test logged for CC1(C)C2CC[C@]3(C)C(C(=O)C=C4[C@@H]5C[C@@](C)(C(=O)O)CC[C@]5(C)CC[C@]43C)[C@@]2(C)CC[C@@H]1OC(=O)CCC(=O)O (stereo not given in full) ?
-- reply F

###

TEST_DETAILS: chemical genetic growth profiling, strain panel (AID 1159580);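 note: tested at 20 µM; growth read once vehicle control cultures reached saturation at 30 °C; lower values mean less growth of the strain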
CONDITION_DETAILS: S. cerevisiae deletion strains, growth OD, locus YGL248W, strain PDE1, active compounds read low
Screen size: about 5,500 compounds; about 2,000 (36%) were called active. About 18% were inconclusive and are not listed. Some of the results follow.
Lab note - cut at 1 for normalized growth: Yes if strictly below, No if not.

| MOLECULE | CAT |
| --- | --- |
| COc1cc(O)c(C(=O)c2ccccc2)cc1O | No |
| C=CC(C)(C)c1c2c(c(O)c3c(=O)c4ccc(O)c(O)c4oc13)C=CC(C)(C)O2 | Yes |

-- ask Lab log: compare recorded normalized growth with 1; is it strictly lower for "CC(C)N(C(=O)CCl)c1ccccc1" ?
-- reply No

-- ask Lab log: compare recorded normalized growth with 1; is it strictly lower for "Cc1cc(C(C)(C)CC(C)(C)C)ccc1OCCOCC[N+](C)(C)Cc1ccccc1" ?
-- reply Yes

-- ask Lab log: compare recorded normalized growth with 1; is it strictly lower for "CCCCOc1ccc(OCCCN2CCOCC2)cc1" ?
-- reply Yes

-- ask Lab log: compare recorded normalized growth with 1; is it strictly lower for "CC(C)=CCc1c(O)cc(C)oc1=O" ?
-- reply No

-- ask Lab log: compare recorded normalized growth with 1; is it strictly lower for CC1(C)C2CC[C@]3(C)C(C(=O)C=C4[C@H]5C[C@@](C)(C(=O)O)CC[C@]5(C)CC[C@]43C)[C@@]2(C)CC[C@@H]1O (stereo not given in full) ?
-- reply No

-- ask Lab log: compare recorded normalized growth with 1; is it strictly lower for "CCCCCCCCCCCCC[N+](C)(C)Cc1ccccc1" ?
-- reply Yes
